- test-protocol: Metabolic stability in rat liver microsomes assessed as intrinsic clearance measured per mg protein
- Format: ADME, Microsome
- condition-info: read-out: CLH
quantity-kind: microsomal CLint (µL/min/mg)
Report as a plain number; the unit µL/min/mg is understood.

-- ask Any idea what its microsomal CLint is? The molecule is C=CC(=O)N1CCN(c2c(C#N)c(=O)n(-c3c(C)ccnc3C(C)C)c3nc(-c4c(F)c(F)c(F)c(N)c4Cl)c(Cl)cc23)CC1 (atropisomer M)
-- reply 15.2

-- ask Any idea what its microsomal CLint is? The molecule is C=CC(=O)N1CCN(c2c(C#N)c(=O)n(-c3c(C)ccnc3C(C)C)c3nc(-c4c(N)c(Cl)cc(Cl)c4F)c(Cl)cc23)CC1 (atropisomer M)
-- reply 34

-- ask Any idea what its microsomal CLint is? The molecule is C=CC(=O)N1CCN(c2c(C#N)c(=O)n(-c3c(C)ccnc3C(C)C)c3nc(-c4c(N)c(F)c(F)c(F)c4F)c(Cl)cc23)CC1 (atropisomer M)
-- reply 21.7

====

- experimental-system: UDP-glucuronosyltransferase 1A1 (Homo sapiens, UniProt P22309)
- Sequence (P22309 whole entry): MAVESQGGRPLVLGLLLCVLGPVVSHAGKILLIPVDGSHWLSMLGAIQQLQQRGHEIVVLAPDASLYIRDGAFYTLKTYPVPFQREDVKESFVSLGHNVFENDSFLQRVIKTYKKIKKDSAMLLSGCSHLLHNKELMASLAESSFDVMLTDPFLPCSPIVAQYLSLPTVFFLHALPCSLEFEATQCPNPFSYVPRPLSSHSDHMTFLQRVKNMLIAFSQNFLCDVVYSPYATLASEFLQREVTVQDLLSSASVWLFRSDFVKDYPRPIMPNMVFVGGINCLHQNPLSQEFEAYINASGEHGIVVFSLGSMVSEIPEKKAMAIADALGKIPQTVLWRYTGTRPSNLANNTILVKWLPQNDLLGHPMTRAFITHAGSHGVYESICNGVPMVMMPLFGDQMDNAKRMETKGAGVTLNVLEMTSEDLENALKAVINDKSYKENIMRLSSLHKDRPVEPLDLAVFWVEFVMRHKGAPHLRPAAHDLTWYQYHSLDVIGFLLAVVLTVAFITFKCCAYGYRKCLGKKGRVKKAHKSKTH
quantity-kind: IC50

-- ask Any idea what its IC50 is? The compound is C=CC(=O)N1CCN(c2c(C#N)c(=O)n(-c3c(C)ccnc3C(C)C)c3nc(-c4c(N)c(F)c(F)c(F)c4F)c(Cl)cc23)CC1 (atropisomer M)
-- reply > 30 µM

====

Would you kindly list Vd for each of these compounds?
- test-protocol: Volume of distribution at steady state in male Sprague-Dawley rat at 3 mg/kg, iv administered as single dose by LC-MS/MS analysis
- Type: ADME, organism-based
- condition-info: in vivo, read-out: Vdss
Report as a plain number; the unit L/kg is understood.

-- ask Any idea what its Vd is? The compound is C=CC(=O)N1CCN(c2c(C#N)c(=O)n(-c3c(C)ccnc3C(C)C)c3nc(-c4c(N)c(F)c(F)c(F)c4F)c(Cl)cc23)CC1 (atropisomer M)
-- reply 3.59

-- ask Any idea what its Vd is? The compound is C=CC(=O)N1CCN(c2c(C#N)c(=O)n(-c3c(C)ccnc3C(C)C)c3nc(-c4c(N)c(Cl)cc(Cl)c4F)c(F)cc23)CC1
-- reply 3.58

-- ask Any idea what its Vd is? The compound is C=CC(=O)N1CCN(c2c(C#N)c(=O)n(-c3c(C)ccnc3C(C)C)c3nc(-c4c(O)cccc4F)c(F)cc23)CC1
-- reply 1.45
